Target Desc: T1, IL23R_huFC (human, UniProt Q5VWK5 24-353)
T1 sequence (looked up): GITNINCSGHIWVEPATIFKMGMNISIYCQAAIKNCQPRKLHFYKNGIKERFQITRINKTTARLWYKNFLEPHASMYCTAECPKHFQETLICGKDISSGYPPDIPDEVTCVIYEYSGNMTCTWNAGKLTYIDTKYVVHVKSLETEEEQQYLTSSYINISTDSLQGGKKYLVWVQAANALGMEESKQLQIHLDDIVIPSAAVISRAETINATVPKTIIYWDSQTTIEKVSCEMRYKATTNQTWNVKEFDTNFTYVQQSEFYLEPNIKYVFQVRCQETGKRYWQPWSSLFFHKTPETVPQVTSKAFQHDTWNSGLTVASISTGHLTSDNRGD
Assay Protocol: IL23-IL23R competitive binding ELISA
[ ]: non-standard residue; d: D form. The star is where a group is joined. Palmitoyl = CCCCCCCCCCCCCCCC(=O)*
Assay Endpoint: pIC50
The quantity pIC50 is defined as the negative base-10 logarithm of the molar concentration.

> print(dat)
                                     binder  endpoint.value
1  Ac-CQTWQCYW[dL]ENG-NH2 (cysteine pairing not given here) [Ac-CQTWQCYW-[(D)Leu]-ENG-NH2]            6.50
2  CQTWQCYWXLNG (Ac; Z as printed (not explained); NH2) [Ac-CQTWQCYWZ-LNG-NH2]            6.10

Record request: pIC50 value, item Ac-CQTWQCYWK(Palmitoyl)ENG-NH2 (cysteine pairing not given here) [Ac-CQTWQCYW-[K(Palm)]-ENG-NH2]
5.31

Every entry's value here was drawn from patent US20190300590A1.
